This collection of values is drawn from patent US20240327535A1.

# System Tested: T1, extracellular domain of human BCMA (human, UniProt Q02223 1-54)
# T1 construct: amine-linked to Octet AR2G tips; also called hsBCMA; BCMA (human)
# T1 sequence: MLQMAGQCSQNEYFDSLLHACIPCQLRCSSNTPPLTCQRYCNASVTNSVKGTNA
# Protocol Text: Octet BLI; Fab 200 nM
Measured Attribute: pKd
Scale explanation: pKd corresponds to minus log10 of a concentration expressed in moles per litre.

Query: pKd; subject: AB200_Fab + D99N (Fab, name in Kabat numbering, V domains shown, also called D99N variant) VH: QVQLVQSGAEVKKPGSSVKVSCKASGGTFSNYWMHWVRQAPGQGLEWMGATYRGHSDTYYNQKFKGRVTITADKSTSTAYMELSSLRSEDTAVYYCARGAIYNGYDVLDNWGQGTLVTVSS VL: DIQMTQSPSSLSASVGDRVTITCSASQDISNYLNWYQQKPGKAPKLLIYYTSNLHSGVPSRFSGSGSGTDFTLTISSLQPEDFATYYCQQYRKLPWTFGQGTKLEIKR
8.91

What do you have for AB200_Fab + D99E (Fab, name in Kabat numbering, V domains shown) VH: QVQLVQSGAEVKKPGSSVKVSCKASGGTFSNYWMHWVRQAPGQGLEWMGATYRGHSDTYYNQKFKGRVTITADKSTSTAYMELSSLRSEDTAVYYCARGAIYEGYDVLDNWGQGTLVTVSS VL: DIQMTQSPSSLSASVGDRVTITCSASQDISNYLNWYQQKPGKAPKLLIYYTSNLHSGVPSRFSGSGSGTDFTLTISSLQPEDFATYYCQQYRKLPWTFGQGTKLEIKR ?
8.23

Field entry: AB200_Fab + D99H (Fab, V domains shown, also called AB200_D99H; D99H variant) VH: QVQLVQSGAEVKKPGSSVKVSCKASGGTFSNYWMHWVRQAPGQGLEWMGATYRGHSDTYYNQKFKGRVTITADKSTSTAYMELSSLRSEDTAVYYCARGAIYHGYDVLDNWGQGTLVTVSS VL: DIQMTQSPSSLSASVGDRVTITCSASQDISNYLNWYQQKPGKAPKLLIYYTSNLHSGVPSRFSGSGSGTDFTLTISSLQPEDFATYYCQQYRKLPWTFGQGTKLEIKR
8.68

And AB200_Fab + D99T (Fab, name in Kabat numbering, V domains shown) VH: QVQLVQSGAEVKKPGSSVKVSCKASGGTFSNYWMHWVRQAPGQGLEWMGATYRGHSDTYYNQKFKGRVTITADKSTSTAYMELSSLRSEDTAVYYCARGAIYTGYDVLDNWGQGTLVTVSS VL: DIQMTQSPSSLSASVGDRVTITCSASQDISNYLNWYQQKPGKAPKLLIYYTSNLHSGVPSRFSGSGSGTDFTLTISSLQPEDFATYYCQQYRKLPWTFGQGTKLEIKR ?
8.43
